Overview of recorded Total cholesterol TC for various compounds
tested on: High Fat Diet Rats; assay: Losing weight and depressing blood fat in high-fat diet SD rats; type: in vivo; conditions: intragastric once a day for a month, compounds 25 mg/kg, sibutramine 1.0 mg/kg, mean ± SD, n = 10

>  <compound>
CCCCC/C=C\C/C=C\CCCCCCCC(=O)Oc1ccc(-c2coc3cc(OC)ccc3c2=O)cc1

>  <target under test>
High Fat Diet Rats

>  <units text>
mmol/L

>  <Total cholesterol TC>
1.67

$$$$
>  <compound>
CCCCC/C=C\C/C=C\CCCCCCCC(=O)Oc1ccc2c(=O)c(-c3ccc(OC)cc3)coc2c1

>  <target under test>
High Fat Diet Rats

>  <units text>
mmol/L

>  <Total cholesterol TC>
1.28

$$$$
>  <compound>
CCCCCCCC/C=C\CCCCCCCC(=O)Oc1ccc2c(=O)c(-c3ccc(OC)cc3)coc2c1

>  <target under test>
High Fat Diet Rats

>  <units text>
mmol/L

>  <Total cholesterol TC>
1.31

$$$$
>  <compound>
CCCCCCCC/C=C\CCCCCCCC(=O)Oc1ccc(-c2coc3cc(OC)ccc3c2=O)cc1

>  <target under test>
High Fat Diet Rats

>  <units text>
mmol/L

>  <Total cholesterol TC>
1.65

$$$$
>  <compound>
CCCCCCCCCCCCCCCCCC(=O)Oc1ccc(-c2coc3cc(OC)ccc3c2=O)cc1

>  <target under test>
High Fat Diet Rats

>  <units text>
mmol/L

>  <Total cholesterol TC>
1.71

$$$$
>  <compound>
CCCCCCCCCCCCCCCCCC(=O)Oc1ccc2c(=O)c(-c3ccc(OC)cc3)coc2c1

>  <target under test>
High Fat Diet Rats

>  <units text>
mmol/L

>  <Total cholesterol TC>
1.57

$$$$
>  <compound>
CC(C)CC(N(C)C)C1(c2ccc(Cl)cc2)CCC1 (stereo not shown) [Sibutramine, reference compound]

>  <target under test>
High Fat Diet Rats

>  <units text>
mmol/L

>  <Total cholesterol TC>
1.32

$$$$

---

system: PPARγ2-mRNA; assay: RT-PCR of PPARγ2-mRNA expression in 3T3-L1 cells; format: cell-based; settings: during differentiation of preadipocyte 3T3-L1; GAPDH internal reference; FIG. 4

>  <compound>
CCCCC/C=C\C/C=C\CCCCCCCC(=O)Oc1ccc2c(=O)c(-c3ccc(OC)cc3)coc2c1 [I-2, 4′-methoxy-7-O-linoleoyl daizeol]

>  <PPARγ2-mRNA expression quantity>
increased

$$$$
>  <compound>
CCCCCCCCCCCCCCCCCC(=O)Oc1ccc2c(=O)c(-c3ccc(OC)cc3)coc2c1 [I-3, 4′-methoxy-7-O-stearoyl daizeol]

>  <PPARγ2-mRNA expression quantity>
significantly decreased

$$$$
>  <compound>
CCCCCCCC/C=C\CCCCCCCC(=O)Oc1ccc2c(=O)c(-c3ccc(OC)cc3)coc2c1 [I-1, 4′-methoxy-7-O-oleoyl daizeol]

>  <PPARγ2-mRNA expression quantity>
increased

$$$$
>  <compound>
CCCCCCCCCCCCCCCC(=O)Oc1ccc2c(=O)c(-c3ccc(OC)cc3)coc2c1 [I-4, 4′-methoxy-7-O-palmityl daizeol]

>  <PPARγ2-mRNA expression quantity>
significantly decreased

$$$$
